# EXPERIMENT: Volume of distribution at steady state in rat at 30 mg/kg
# Format: ADME, organism-based
# Design: dose 30 mg/kg
# CONDITION_PARAMETERS: in vivo, read-out: Vdss
EXPERIMENTAL_ENDPOINT: Vd (L/kg)

SMILES_STRING: CC(C)OC(=O)N1CCC(Oc2ncnc3c2CCN3c2ccc(S(C)(=O)=O)cc2F)CC1
EXPERIMENTAL_ENDPOINT: Vd
MEAS_VALUE: 1.5

* * *

# EXPERIMENT: Clearance in rat at 30 mg/kg
# Type: ADME, organism-based
# Parameters: dose 30 mg/kg
# CONDITION_PARAMETERS: in vivo

SMILES_STRING: CC(C)OC(=O)N1CCC(Oc2ncnc3c2CCN3c2ccc(S(C)(=O)=O)cc2F)CC1
VALUE_UNITS: mL/min/kg
clearance: 8.4

* * *

# SYSTEM_UNDER_TEST: UniProt:Q8TDV5
# Sequence (Q8TDV5 whole entry): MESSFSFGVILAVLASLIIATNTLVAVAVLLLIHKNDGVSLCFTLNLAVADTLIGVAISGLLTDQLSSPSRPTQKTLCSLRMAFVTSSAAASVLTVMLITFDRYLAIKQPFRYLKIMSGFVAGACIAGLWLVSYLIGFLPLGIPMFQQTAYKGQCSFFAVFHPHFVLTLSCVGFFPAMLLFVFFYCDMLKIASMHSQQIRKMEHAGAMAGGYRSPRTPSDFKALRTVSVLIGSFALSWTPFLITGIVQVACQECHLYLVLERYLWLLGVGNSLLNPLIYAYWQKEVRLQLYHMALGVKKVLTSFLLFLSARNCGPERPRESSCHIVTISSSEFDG
# EXPERIMENT: Agonist activity at human GPR119 receptor expressed in CHO-K1 cells co-expressing 6CRE-luciferase gene after 5 hrs by luciferase reporter gene assay
# Type: functional, cell-based
# CONDITION_PARAMETERS: read-out: pEC50 (converted)
EXPERIMENTAL_ENDPOINT: EC50 (nM)

SMILES_STRING: CC(C)c1noc(N2CCC(Oc3ncnc4c3CCN4c3ccc(S(C)(=O)=O)cc3F)CC2)n1
SYSTEM_UNDER_TEST: UniProt:Q8TDV5
VALUE_UNITS: nM
MEASUREMENT_QUALIFIER: =
MEAS_VALUE: 79.4
--
SMILES_STRING: CC(C)OC(=O)N1CCC(Oc2ncnc3c2CCN3c2ccc(F)cn2)CC1
SYSTEM_UNDER_TEST: UniProt:Q8TDV5
VALUE_UNITS: nM
MEASUREMENT_QUALIFIER: >
MEAS_VALUE: 10000
--
SMILES_STRING: Cc1nc(OC2CCN(C(=O)OC(C)C)CC2)c2c(n1)N(c1ccc(S(C)(=O)=O)cc1F)CC2
SYSTEM_UNDER_TEST: UniProt:Q8TDV5
VALUE_UNITS: nM
MEASUREMENT_QUALIFIER: =
MEAS_VALUE: 100
--
SMILES_STRING: CC(C)OC(=O)N1CCC(Nc2ncnc3c2CCN3c2ccc(S(C)(=O)=O)cc2F)CC1
SYSTEM_UNDER_TEST: UniProt:Q8TDV5
VALUE_UNITS: nM
MEASUREMENT_QUALIFIER: =
MEAS_VALUE: 2000
--
SMILES_STRING: Cc1nc(OC2CCN(C(=O)OC(C)(C)C)CC2)c2c(n1)N(c1ccc(S(C)(=O)=O)cc1F)CC2
SYSTEM_UNDER_TEST: UniProt:Q8TDV5
VALUE_UNITS: nM
MEASUREMENT_QUALIFIER: =
MEAS_VALUE: 126
--
SMILES_STRING: CC(C)(C)OC(=O)N1CCC(Oc2cccc3c2ccn3-c2ccc(S(C)(=O)=O)cc2)CC1
SYSTEM_UNDER_TEST: UniProt:Q8TDV5
VALUE_UNITS: nM
MEASUREMENT_QUALIFIER: =
MEAS_VALUE: 631
--
SMILES_STRING: CC(C)OC(=O)N1CCC(Sc2ncnc3c2CCN3c2ccc(S(C)(=O)=O)cc2F)CC1
SYSTEM_UNDER_TEST: UniProt:Q8TDV5
VALUE_UNITS: nM
MEASUREMENT_QUALIFIER: =
MEAS_VALUE: 79.4
--
SMILES_STRING: CC(C)OC(=O)N1CCC(Oc2ncnc3c2CCN3c2ccc(S(C)(=O)=O)c(F)c2)CC1
SYSTEM_UNDER_TEST: UniProt:Q8TDV5
VALUE_UNITS: nM
MEASUREMENT_QUALIFIER: =
MEAS_VALUE: 158
--
SMILES_STRING: CC(C)(C)COC(=O)N1CCC(Oc2ncnc3c2CCN3c2ccc(S(C)(=O)=O)cc2F)CC1
SYSTEM_UNDER_TEST: UniProt:Q8TDV5
VALUE_UNITS: nM
MEASUREMENT_QUALIFIER: =
MEAS_VALUE: 39.8
--
SMILES_STRING: CN(C)S(=O)(=O)N1CCC(Oc2ncnc3c2CCN3c2ccc(S(C)(=O)=O)cc2F)CC1
SYSTEM_UNDER_TEST: UniProt:Q8TDV5
VALUE_UNITS: nM
MEASUREMENT_QUALIFIER: =
MEAS_VALUE: 398
